molecular target: HIV-1 reverse transcriptase (HIV-1, UniProt P04585;P04585 P04585:588-1147,P04585:588-1027); assay: inhibition; Ki' for RNA-dependent DNA polymerase activity; settings: tags: overexpressed in E. coli, purified per Davies et al. 1991; pseudoknot
readout.label: Ki
Answer with the figure and its unit, nothing else.

Note to self: Ki recorded for GGUCCGAAGUGCAACGGGAAAAUGCACU (ssRNA) [RNA pseudoknot (RNA pk)] was 4.7 nM
